# tgt: ACE (Homo sapiens, UniProt P12821)
# Construct: purchased Sigma-Aldrich
# Sequence (P12821 30-1306, species assumed): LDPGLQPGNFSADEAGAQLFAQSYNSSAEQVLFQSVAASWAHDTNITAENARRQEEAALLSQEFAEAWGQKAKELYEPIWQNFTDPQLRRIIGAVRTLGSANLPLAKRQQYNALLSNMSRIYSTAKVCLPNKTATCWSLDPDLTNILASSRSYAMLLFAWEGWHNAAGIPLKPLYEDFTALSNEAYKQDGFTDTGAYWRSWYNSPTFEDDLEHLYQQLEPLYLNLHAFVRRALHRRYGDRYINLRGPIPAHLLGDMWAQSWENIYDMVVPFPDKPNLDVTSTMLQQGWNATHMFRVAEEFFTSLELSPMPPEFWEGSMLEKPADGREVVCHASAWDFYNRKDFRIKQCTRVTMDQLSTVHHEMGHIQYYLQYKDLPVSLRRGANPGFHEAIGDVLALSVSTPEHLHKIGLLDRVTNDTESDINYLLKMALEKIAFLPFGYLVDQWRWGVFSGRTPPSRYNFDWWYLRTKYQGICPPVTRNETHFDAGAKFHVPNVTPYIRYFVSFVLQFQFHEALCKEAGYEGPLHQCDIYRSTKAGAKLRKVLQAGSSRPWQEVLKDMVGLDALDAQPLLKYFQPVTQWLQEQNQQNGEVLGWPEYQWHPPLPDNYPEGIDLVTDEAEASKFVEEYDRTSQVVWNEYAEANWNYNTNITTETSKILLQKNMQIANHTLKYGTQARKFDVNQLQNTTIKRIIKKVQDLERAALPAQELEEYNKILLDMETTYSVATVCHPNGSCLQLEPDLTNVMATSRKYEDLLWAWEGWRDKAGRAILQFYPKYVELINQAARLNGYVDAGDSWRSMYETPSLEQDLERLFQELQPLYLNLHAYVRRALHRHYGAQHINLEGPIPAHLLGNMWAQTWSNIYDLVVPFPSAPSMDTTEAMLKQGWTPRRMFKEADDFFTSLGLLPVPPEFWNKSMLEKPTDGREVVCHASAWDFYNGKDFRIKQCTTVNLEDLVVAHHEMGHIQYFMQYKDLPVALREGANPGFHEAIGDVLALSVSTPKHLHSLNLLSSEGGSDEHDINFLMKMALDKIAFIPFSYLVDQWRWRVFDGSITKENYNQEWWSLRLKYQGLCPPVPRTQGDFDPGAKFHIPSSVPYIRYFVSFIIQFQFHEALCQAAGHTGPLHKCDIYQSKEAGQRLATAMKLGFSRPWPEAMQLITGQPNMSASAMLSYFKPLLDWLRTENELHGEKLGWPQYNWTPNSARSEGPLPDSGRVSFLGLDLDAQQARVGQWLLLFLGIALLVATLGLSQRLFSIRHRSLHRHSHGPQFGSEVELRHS
# assay_remarks: ACEI activity in vitro (ACE activity assay kit)
# Type: biochemical
# condition_description: 10 μL ACE + 40 μL inhibitor + 50 μL substrate, fluorescence ex 320 nm/em 405 nm, 37 °C, 30 min, synthesized peptide, triplicate, mean ± SD
No end group written: not given here.
readout: pIC50
Remember, pIC50 is on a log scale: it is -log10 of the molar concentration.

Reported ACE (Homo sapiens, UniProt P12821) pIC50 for item DLGGFFGFQR [DLGGFFGFQR] was 4.61
